- system.name: JNK3α1 (39–422) (UniProt P53779-2 39-422)
- method.summary: ITC
pKd: −log10 of the molar value.
measured.endpoint: pKd

Examples from the recorded data:
RPKHPTTLNLF [JIP1 R160H] | 4.93
RPKRPGTLNLF [JIP1 T162G] | 5.31

A = AVVRPGSLDLP [pepSABhu(40–350)]
B = RPKRPTTLNLF [pepJIPhu(157–167)]
Q: Consider A and B . Which of these has its pKd at a higher number? Identify your selection by its label.
A: B
(B: 6.10, A: 4.76)
